Tested on: Staphylococcus aureus
TEST SUMMARY: Disc test, Bauer-Kirby technique with 10 Mcg. discs
Assay type: cell-based
TEST CONTEXT: Staphylococcus aureus, strain 59N
Source text: Disc Test Results (Replicate Tests) With The Mutamicins, Sisomicin and Bauer-Kirby Technique^1 With 10 Mcg. Discs ^1 Bauer, Kirby, Sherris and Turck, American Journal of Clinical
I'd be grateful if you could share measured zone of inhibition at 10 µg/disc for these entries.
Report the figure in mm without appending any unit label.

Entry under test: `CN[C@@H]1[C@@H](O)[C@@H](O[C@@H]2C[C@H](O[C@H]3OC(CN)=CC[C@H]3N)[C@@H](N)C[C@H]2N)OC[C@]1(C)O` . Its zone of inhibition at 10 µg/disc was 29

get_value(item= `CN[C@@H]1[C@@H](O)[C@@H](O[C@@H]2[C@@H](N)[C@H](O[C@H]3OC(CN)=CC[C@H]3N)[C@@H](N)C[C@H]2N)OC[C@]1(C)O` , readout=zone of inhibition at 10 µg/disc) returns 23

Please fill in: zone of inhibition at 10 µg/disc reported for `CN[C@@H]1[C@@H](O)[C@@H](O[C@H]2[C@H](N)[C@H](O)[C@H](N)[C@@H](O[C@H]3OC(CN)=CC[C@H]3N)[C@@H]2O)OC[C@]1(C)O` = 26

Sure, the documented zone of inhibition at 10 µg/disc for CN[C@@H]1[C@@H](O)[C@@H](O[C@@H]2[C@@H](O)[C@H](O[C@H]3OC(CN)=CC[C@H]3N)[C@@H](N)C[C@H]2N)OC[C@]1(C)O [Sisomicin, reference compound] is 28

Consider `CN[C@@H]1[C@@H](O)[C@@H](O[C@H]2[C@H](N)[C@@H](O)[C@H](N)[C@@H](O[C@H]3OC(CN)=CC[C@H]3N)[C@@H]2O)OC[C@]1(C)O` . Its measured zone of inhibition at 10 µg/disc is 26

---

Please respond with reported zone of inhibition at 10 µg/disc for every item in the list.
Test system: Escherichia coli
TEST SUMMARY: Disc test, Bauer-Kirby technique with 10 Mcg. discs
Format: cell-based
TEST CONTEXT: Escherichia coli, strain 589; 10 Mcg. discs; read-out: Zone Size
State the answer as a number, implicitly in mm.

The compound listed as CN[C@@H]1[C@@H](O)[C@@H](O[C@@H]2C[C@H](O[C@H]3OC(CN)=CC[C@H]3N)[C@@H](N)C[C@H]2N)OC[C@]1(C)O [Mutamicin 2] has a reported zone of inhibition at 10 µg/disc of 24

get_value(item= CN[C@@H]1[C@@H](O)[C@@H](O[C@H]2[C@H](N)[C@@H](O)[C@H](N)[C@@H](O[C@H]3OC(CN)=CC[C@H]3N)[C@@H]2O)OC[C@]1(C)O [Mutamicin 1] , readout=zone of inhibition at 10 µg/disc) returns 29

The recorded zone of inhibition at 10 µg/disc for entry CN[C@@H]1[C@@H](O)[C@@H](O[C@H]2[C@H](N)[C@H](O)[C@H](N)[C@@H](O[C@H]3OC(CN)=CC[C@H]3N)[C@@H]2O)OC[C@]1(C)O [Mutamicin 4] equals 26

Memo: CN[C@@H]1[C@@H](O)[C@@H](O[C@@H]2[C@@H](O)[C@H](O[C@H]3OC(CN)=CC[C@H]3N)[C@@H](N)C[C@H]2N)OC[C@]1(C)O [Sisomicin, reference compound] , reported zone of inhibition at 10 µg/disc: 24
